Target: T1, recombinant human IL-17A (human, UniProt Q16552 24-155)
T1 construct: Bought recombinant protein (Peprotech AF-200-17); also called Peprotech AF-200-17
T1 sequence (Q16552 24-155): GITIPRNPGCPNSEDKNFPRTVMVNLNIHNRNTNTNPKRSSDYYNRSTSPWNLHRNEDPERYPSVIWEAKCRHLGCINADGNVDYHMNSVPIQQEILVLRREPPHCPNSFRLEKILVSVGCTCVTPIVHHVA
Assay: SPR (BIAcore T200), IL-17A coupled to CM5 chip, single-cycle kinetics;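 note: VH domain analytes, kinetic constants obtained by fitting blank-corrected sensorgrams to a 1:1 binding model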
Quick rule: koff of at least 0.0005 s⁻¹ means rule met, below that means rule not met.

BINDER	CATEGORY
Clone 1.12 (VHH, Human single VH domain) VHH: QVQLVESGGGLVQPGGSLRLSCAASGFTFSSYGMYWVRQAPGKGLEWVAKIEQDGSEEYYVDSVKGRFTISRDNAKNSLYLQMNSLRAEDTAVYYCAKGEILPLYFDYWGQGTLVTVSS	rule met
VH 1.6.1 (clone 1.6 expressed from phagemid vector: with linker residues and His tag) (VHH, Human single VH domain) VHH: EVQLVESGGGLVQPGGSLRLSCAASGFTFSSYSMYWVRQAPGKGLEWVAEIKQDGSEQYYVDSVKGRFTISRDNAKNSLYLQMNSLRAEDTAVYYCAKGEILPLYFDYWGQGTLVTVSS	rule not met
VH 1.18.1 (clone 1.18 expressed from phagemid vector: with linker residues and His tag) (VHH, Human single VH domain) VHH: EVQLVESGGGLVQPGGSLRLSCAASGFTFSSYSMYWVRQAPGKGLEWVAEIKQDGSVQYYVGGVKGRFTISRDNAKNSLYLQMNSLRAEDTAVYYCAKGEILPLYFDYWGQGTLVTVSS	rule not met
VH 1.16.1 (clone 1.16 expressed from phagemid vector: with linker residues and His tag) (VHH, Human single VH domain) VHH: EVQLVESGGGLVQPGGSLRLSCAASGFTFSSYSMYWVRQAPGKGLEWVAEIKQDGSEQYYVDSVKGRFTISRDNAKNSLYLQMNGLRAEDTAVYYCAKGEILPLYFDYWGQGTLVTVSS	rule not met
Clone 1.13 (VHH, Human single VH domain) VHH: EVQLVESGGGLVQPGGSLRLSCAASGFTFSSYGMYWVRQAPGKGLEWVASIEQDGSEKYYVDSVKGRFTISRDNAKNSLYLQMNSLRAEDTAVYYCAKGEILPLYFDYWGQGTLVTVSS	rule met

Evaluate VH 1.1.1 (clone 1.1 expressed from phagemid vector: with linker residues and His tag) (VHH, Human single VH domain; also called Family 1 (clone 1.1)) VHH: EVQLVESGGGLVQPGGSLRLSCAASGFTFSSYSMYWVRQAPGKGLEWVANIKQDGSEKYYVDSVKGRFTISRDNAKNSLFLQMNSLRAEDTAVYYCAKGEILPLHFDYWGQGTLVTVSS : koff at minimum 0.0005 s⁻¹? rule met

State whether the measured koff reaches 0.0005 s⁻¹, counting equality as reaching it, for VH 1.19.1 (clone 1.19 expressed from phagemid vector: with linker residues and His tag) (VHH, Human single VH domain) VHH: EVQLVESGGGLVQPGGSLRLSCATSGFTFSSYGMYWVRQAPGKGLEWVAEIKQDGSEKYYVDSVKGRFTISRDNAKNSLYLQMNSLRAEDTAVYYCAKGEILPLYFDYWGQGTLVTVSS rule not met

# check: koff of Clone 1.9 (VHH, Human single VH domain) VHH: QVQLVESGGGLVQPGGSLRLSCAASGFTFSSYGMYWVRQAPGKGLEWVAEIKQDGSEKYYVDSVKGRFTISRDNAKNSLYLQMNSLRAEDTAVYYCAKGEILPLYFDYWGQGTLVTVSS is greater than or equal to 0.0005 s⁻¹ rule not met
